# tested.on: hCB2 (Homo sapiens)
# Sequence (P34972 whole entry): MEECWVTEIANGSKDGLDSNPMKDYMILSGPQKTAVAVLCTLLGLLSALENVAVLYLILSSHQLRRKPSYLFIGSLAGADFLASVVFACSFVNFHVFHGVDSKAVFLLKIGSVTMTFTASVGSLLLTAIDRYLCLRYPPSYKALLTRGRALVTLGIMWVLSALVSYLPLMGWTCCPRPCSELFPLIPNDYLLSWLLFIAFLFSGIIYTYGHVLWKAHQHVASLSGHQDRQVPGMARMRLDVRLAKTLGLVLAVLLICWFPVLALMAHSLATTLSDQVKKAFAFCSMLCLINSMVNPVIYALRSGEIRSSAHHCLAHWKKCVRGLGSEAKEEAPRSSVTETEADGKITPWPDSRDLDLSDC
# assay.protocol: hCB2 radioligand binding assay ([3H]-CP 55,940 displacement)
# experimental.setup: HEK membranes, read-out: hCB2 IC50 (CP displ, nM, HEK)
// IC50 lookup, one value per entry

Example results:
CCn1c(C(=O)c2c[nH]c3ccncc23)cc2ccsc21 :: > 10000 nM
CCn1c(C(=O)c2c(C)[nH]c3ccccc23)cc2ccsc21 :: 1000 to 10000 nM

Kindly indicate its recorded IC50. Item: CCCn1c(C(=O)c2c(C)[nH]c3sccc23)cc2ccccc21
> 10000 nM

Answer with the recorded IC50 of CCn1c(C(=O)c2c[nH]c3cnccc23)cc2ccsc21 only.
> 10000 nM

Respond only with IC50 recorded for CCCn1c(C(=O)c2c[nH]c3ccncc23)cc2ccsc21
> 10000 nM
